Test system: Klebsiella pneumoniae
measurement notes: Antimicrobial activity against Klebsiella pneumoniae ATCC 10031 by agar dilution method
Type: functional
cond: Klebsiella pneumoniae, ATCC 10031; read-out: MIC
Each entry below carries its recorded MIC.
readout: MIC

CCC(=O)O[C@H]1[C@H](O[C@H]2[C@@H](CC=O)C[C@@H](C)[C@@H](OC(=O)CC)/C=C/C=C/C[C@@H](C)OC(=O)C[C@@H](OC(C)=O)[C@@H]2OC)O[C@H](C)[C@@H](O[C@H]2C[C@@](C)(O)[C@@H](OC(=O)CC(C)C)[C@H](C)O2)[C@@H]1N(C)C = 100 µg/mL
CCCC(=O)O[C@H]1[C@H](C)O[C@@H](O[C@H]2[C@H](N(C)C)[C@@H](OC(C)=O)[C@H](O[C@H]3[C@@H](CC=O)C[C@@H](C)[C@@H](OC(C)=O)/C=C/C=C/C[C@@H](C)OC(=O)C[C@@H](OC(C)=O)[C@@H]3OC)O[C@@H]2C)C[C@@]1(C)O = 100 µg/mL
